target: P. falciparum apicoplast DNA polymerase (Pf-apPOL) (Plasmodium falciparum); assay: Fluorescence-based high-throughput DNA polymerase assay (molecular beacon), primary screen and dose-response; type: biochemical; conditions: primary screen value, 'DNA Pol' only; 90 min, 10 µM
Sequence (Q8ILY1 entry or part of it): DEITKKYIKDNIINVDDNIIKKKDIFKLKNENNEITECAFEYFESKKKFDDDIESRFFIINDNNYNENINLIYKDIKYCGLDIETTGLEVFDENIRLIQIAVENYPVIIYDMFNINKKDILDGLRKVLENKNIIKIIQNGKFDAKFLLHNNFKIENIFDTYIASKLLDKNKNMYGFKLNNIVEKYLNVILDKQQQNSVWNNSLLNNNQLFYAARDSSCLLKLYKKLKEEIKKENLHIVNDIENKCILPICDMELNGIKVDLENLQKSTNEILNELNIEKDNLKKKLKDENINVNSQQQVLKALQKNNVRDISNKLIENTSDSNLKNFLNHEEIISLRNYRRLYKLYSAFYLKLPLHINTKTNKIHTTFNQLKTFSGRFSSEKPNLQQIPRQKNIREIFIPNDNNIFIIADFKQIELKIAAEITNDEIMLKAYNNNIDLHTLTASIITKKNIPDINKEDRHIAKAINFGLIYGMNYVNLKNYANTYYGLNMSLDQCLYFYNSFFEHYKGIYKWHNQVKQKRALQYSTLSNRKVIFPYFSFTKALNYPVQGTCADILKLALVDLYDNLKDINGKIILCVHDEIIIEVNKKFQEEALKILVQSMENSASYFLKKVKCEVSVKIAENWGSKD
reported.metric: DNA Pol
I'd appreciate a reply containing only the number, no unit.

[
  {
    "compound": "Cc1nn(CC(=O)NCCSCc2ccco2)c(C)c1Br",
    "DNA Pol": 72
  },
  {
    "compound": "Oc1ccc(N=Nc2ccccc2)c(O)c1",
    "DNA Pol": 72
  },
  {
    "compound": "CO/N=C(\\C(=O)N[C@@H]1C(=O)N2C(C(=O)[O-])=C(CSc3nc(=O)c([O-])nn3C)CSC12)c1csc(N)n1.[Na+].[Na+] (stereo partly drawn)",
    "DNA Pol": 48
  }
]

Asked: Specify the recorded DNA Pol for Cc1ncc(CSc2nc(C(C)(C)C)cs2)c(CO)c1O , system: P. falciparum apicoplast DNA polymerase (Pf-apPOL) (Plasmodium falciparum).
Given back: 70

Asked: Specify the recorded DNA Pol for CCOC(=O)C(NCc1ccco1)(NC(=O)c1ccco1)C(F)(F)F (stereo not drawn) , system: P. falciparum apicoplast DNA polymerase (Pf-apPOL) (Plasmodium falciparum).
Given back: 69

Asked: Specify the recorded DNA Pol for CS(=O)(=O)c1cccc(C(=O)Nc2nnc(-c3ccno3)o2)c1 , system: P. falciparum apicoplast DNA polymerase (Pf-apPOL) (Plasmodium falciparum).
Given back: 45
